# target-entity: T1, UNK ZnF1-3 (human, UniProt Q9C0B0 31-174)
# T1 sequence: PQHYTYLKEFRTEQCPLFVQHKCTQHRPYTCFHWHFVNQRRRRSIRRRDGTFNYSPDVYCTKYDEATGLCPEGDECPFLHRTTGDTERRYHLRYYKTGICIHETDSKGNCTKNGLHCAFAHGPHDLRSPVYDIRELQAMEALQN
# experimental-protocol: nsRBNS (natural sequence RNA bind-n-seq); RBNS binding buffer (assumed for nsRBNS): 25 mM Tris pH 7.5, 150 mM KCl, 3 mM MgCl2, 0.01% Triton X-100, 500 ug/ml BSA, 20 U/ml SUPERase-In, 4 C; UNK is unkempt and MSI1 is Musashi-1; names of the RNAs are library labels; protein concentration not given here; high values mean tight binding
Over roughly 24,000 sequences, “enrichment r” has its median near 0.99; the highest 2% begin near 3.7. The sample holds the highest values, similar sequences and a random draw of the others, so the mix is not that of the screen.
Each entry below lists one item and its recorded binding signal value.

binder	scale-unit	binding signal
chr8:59488481:59488482:+_ENSG00000137575_ENST00000447182|hu_mus|motif|central (ssRNA) RNA: GGGAGUUCUACAGUCCGACGAUCUCCAGCAUCGUUACCUGUCACAGGUGCUACCAUAUAGUUCACACUGGAUGGUCUUGCGGCCAACCCUUGUGCUGGUGCUCCAGAGACCAUGGGCAUGCUCUCACAUAUUUCAGCUUCAUUCAACAGAGGAUUGAGCAUCA	enrichment R	0.558
40918001_40923414_123_3pUTR_ENSMUSG00000028423_ENSMUST00000098143|mouse|control|control (ssRNA) RNA: GGGAGUUCUACAGUCCGACGAUCAGCAGCAUCUGUAUUGAAUUUAAAAGUGCCUGAGACCGGAGGCGCCUCCGCCAUCCCGUGCCGCAGCACCUCAAGCGAGCCCCGCCACCGAGCGAAGGCUGUCACCUGGUCACGUGUCCCCAACAGAGGAUUGAGCAUCA	enrichment R	1.06
chr2:48026839:48026840:+_ENSG00000116062_ENST00000540021|hu_hu|hu_hu_hu_mus_False|18_48 (ssRNA) RNA: GGGAGUUCUACAGUCCGACGAUCAUAGUGAGCCACUAGCGUCCUAAAUCUGGAACAGUGGCGGUCAUCCGAAAACUGGCCGAUGAAAAACUUUCCCAGUGAAGUGUCCACAAAGCACACACCAUAUACACGAGUGUGACCAGACAACAGAGGAUUGAGCAUCA	enrichment R	1.2
